Catalogue of viability, T/C values
system: HSSY-II complex spheroid growth, percent test/control; test: Anticancer human tumor HSSY-II cell line growth inhibition [Asc]; details: second compound 10 µM; first compound 1 µM; stronger effect = lower value;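 further: spheroids exposed to drug for 7 days before reading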
Output spec: scalar in %, unitless text.

[[record]]
molecule = "O=C(c1ccc(F)c(F)c1Nc1ccc(I)cc1F)N1CC(O)([C@@H]2CCCCN2)C1 + Cc1c(S(C)(=O)=O)c(-c2cc(F)cc(N3CCN(c4ccc(NS(=O)(=O)c5ccc(NC(CCN6CCC(C(=O)OCCCP(=O)(O)O)CC6)CSc6ccccc6)c(S(=O)(=O)C(F)(F)F)c5)cc4)CC3)c2)c(-c2ccc(Cl)cc2)n1C(C)C"
readout = "viability, T/C"
readout_value = 18.1


Alright, here's another molecule for you.
Input line: Consider the molecule C=CC(=O)N1CCN(c2nc(=O)n(-c3c(C)ccnc3C(C)C)c3nc(-c4c(O)cccc4F)c(F)cc23)C(C)C1 (configuration not stated) + Cc1c(S(C)(=O)=O)c(-c2cc(F)cc(N3CCN(c4ccc(NS(=O)(=O)c5ccc(NC(CCN6CCC(C(=O)OCCCP(=O)(O)O)CC6)CSc6ccccc6)c(S(=O)(=O)C(F)(F)F)c5)cc4)CC3)c2)c(-c2ccc(Cl)cc2)n1C(C)C and give its measured viability, T/C.
Output line: 110
